- targetSystem: HIV protease (Human immunodeficiency virus type 1 group M subtype B, UniProt P04585)
- Construct: and purified protease
- testProtocol: HIV Protease Assay
- Format: biochemical
- recordedConditions: pH 5.5, read-out: HIV Protease % Inhibition at 10 μM
readoutName: inhibition at 10 µM (%)
Give bare numbers, in %.

Solved entries:
compound=CC(C)(C)OC(=O)N[C@@H](Cc1ccccc1)[C@H](O)CNC[C@@H](O)[C@H](Cc1ccccc1)NC(=O)[C@](C)(O)c1ccccc1 readoutname="inhibition at 10 µM" testresult=98
compound="CC(C)(C)OC(=O)N[C@@H](Cc1ccccc1)[C@H](O)CNC[C@@H](O)[C@H](Cc1ccccc1)NC(=O)C(C)(O)C(C)(C)CO (single isomer, unassigned; isomer a)" readoutname="inhibition at 10 µM" testresult=99
compound=CC(C)(C)OC(=O)N[C@@H](CCc1ccccc1)[C@H](O)CNC[C@@H](O)[C@H](Cc1ccccc1)NC(=O)OC(C)(C)C readoutname="inhibition at 10 µM" testresult=98
compound=CC(C)(C)OC(=O)N[C@@H](Cc1ccccc1)[C@H](O)CNC[C@@H](O)[C@H](Cc1ccccc1)NC(=O)[C@](C)(O)C(C)(C)C readoutname="inhibition at 10 µM" testresult=100
compound=CN1CCN(CCOc2ccc(C[C@H](NC(=O)OC(C)(C)C)[C@H](O)CNC[C@@H](O)[C@H](Cc3ccccc3)NC(=O)OC(C)(C)C)cc2)C1=O readoutname="inhibition at 10 µM" testresult=99

We next turn to a different compound, shown below.
Problem: Quick one: inhibition at 10 µM for CC(C)(C)OC(=O)N[C@@H](Cc1ccccc1)[C@H](O)CNC[C@@H](O)[C@H](Cc1ccccc1)NC(=O)C1(O)CCCC1(C)C (single isomer, unassigned; isomer a) ?
Solution: 100

* * *

- targetSystem: HIV protease (Human immunodeficiency virus type 1 group M subtype B, UniProt P04585)
- Construct: and purified protease
- testProtocol: HIV Protease Assay
- Format: biochemical
- recordedConditions: 10 μM inhibitor, 4% DMSO, 450 μM substrate, pH 5.5, 30 minutes at 37° C., RP-HPLC
readoutName: HIV Protease % Inhibition at 10 μM (%)
One number for each entry, in %.

# count of solved cases: 2
compound="COC(=O)NC(C)(C(=O)N[C@@H](Cc1ccccc1)[C@H](O)CNC[C@@H](O)[C@H](Cc1ccccc1)NC(=O)OC(C)(C)C)C(C)(C)C (single isomer, unassigned; isomer b) [Compound 374]" readoutname="HIV Protease % Inhibition at 10 μM" testresult=28
compound="CC1(C)CCCC1(O)C(=O)N[C@@H](Cc1ccccc1)[C@H](O)CNC[C@@H](O)[C@H](Cc1ccccc1)NC(=O)C1(O)CCCC1(C)C (single isomer, unassigned; isomer b) [Compound 337]" readoutname="HIV Protease % Inhibition at 10 μM" testresult=99

Note: attention shifts to another entry.
Problem: # get_value(readout='HIV Protease % Inhibition at 10 μM', item= CC(C)(C)OC(=O)N[C@@H](Cc1ccccc1)[C@H](O)CNC[C@@H](O)[C@H](Cc1ccccc1)NC(=O)C1(O)COCC1(C)C (single isomer, unassigned; isomer b) [Compound 365] )
Solution: 72

* * *

Please provide measured inhibition at 10 µM for the entries that follow.
- targetSystem: HIV protease (Human immunodeficiency virus type 1 group M subtype B, UniProt P04585)
- Construct: and purified protease
- testProtocol: HIV Protease Assay
- Assay type: biochemical
- recordedConditions: pH 5.5, 10 μM inhibitor, 4% DMSO, 450 μM substrate, pH 5.5, 30 minutes at 37° C., RP-HPLC; read-out: HIV Protease % Inhibition at 10 μM

compound="CC(C)(C)OC(=O)N[C@@H](Cc1ccc(OCCc2ccccn2)cc1)[C@H](O)CNC[C@@H](O)[C@H](Cc1ccccc1)NC(=O)OC(C)(C)CO [Compound 298]" targetsystem="HIV protease (Human immunodeficiency virus type 1 group M subtype B, UniProt P04585)" testresult=100%

Kindly give each listed record's inhibition at 10 µM.
1. CC(C)(C)OC(=O)N[C@@H](Cc1ccccc1)[C@H](O)CN[C@H](Cc1ccccc1)[C@H](O)CNC(=O)OCc1ccccc1 [Compound 189]
2. CC(C)(C)OC(=O)N[C@@H](Cc1ccccc1)[C@H](O)CNC[C@@H](O)[C@H](Cc1ccccc1)NC(=O)[C@@H](NC(=O)OCc1cnc2ccccc2n1)C(C)(C)C [Compound 311]

Solution:
23%
100%

* * *

- targetSystem: HIV protease (Human immunodeficiency virus type 1 group M subtype B, UniProt P04585)
- Construct: and purified protease
- testProtocol: HIV Protease Assay
- Format: biochemical
- recordedConditions: pH 5.5, 10 μM inhibitor, 4% DMSO, 450 μM substrate, pH 5.5, 30 minutes at 37° C., RP-HPLC; read-out: HIV Protease % Inhibition at 10 μM
For each entry below, report its inhibition at 10 µM value.
Give bare numbers, in %.

molecule=CC(C)[C@H](NC(=O)[C@@H](C)O)C(=O)N[C@@H](Cc1ccccc1)[C@H](O)CNC[C@@H](O)[C@H](Cc1ccccc1)NC(=O)OC(C)(C)C testresult=96
molecule="COC(C(=O)N[C@@H](Cc1ccccc1)[C@H](O)CNC[C@@H](O)[C@H](Cc1ccccc1)NC(=O)OC(C)(C)C)C(C)(C)C (stereo partly shown)" testresult=90
molecule="CC(C)[C@H](NC(=O)OCC1=Cc2ccccc2C1)C(=O)N[C@@H](Cc1ccccc1)[C@H](O)CNC[C@@H](O)[C@H](Cc1ccccc1)NC(=O)OC(C)(C)C (relative stereo)" testresult=100
molecule=CC(C)(C)OC(=O)N[C@@H](Cc1ccccc1)[C@H](O)CNC[C@@H](O)[C@H](Cc1ccccc1)NC(=O)O[C@H]1COC[C@@H]1O testresult=97
molecule=CC(C)[C@H](NC(=O)OCc1ccccc1)C(=O)N[C@@H](Cc1ccccc1)[C@H](O)CNC[C@@H](O)[C@H](Cc1ccccc1)N(C)C(=O)OC(C)(C)C testresult=77

For each of the molecules below, state inhibition at 10 µM.
1. CC(C)[C@H](NC(=O)OC[C@@H](O)CO)C(=O)N[C@@H](Cc1ccccc1)[C@H](O)CNC[C@@H](O)[C@H](Cc1ccccc1)NC(=O)OC(C)(C)C (relative stereo)
2. CC(C)(CO)OC(=O)N[C@@H](Cc1ccccc1)[C@H](O)CNC[C@@H](O)[C@H](Cc1ccccc1)NC(=O)OC(C)(C)CO
3. CC(C)(C)OC(=O)N[C@@H](Cc1ccccc1)[C@H](O)CNC[C@@H](O)[C@H](Cc1ccccc1)NC(=O)[C@H](CCCCN)NC(=O)OCc1ccccc1
4. CNC(=O)OC(C(=O)N[C@@H](Cc1ccccc1)[C@H](O)CNC[C@@H](O)[C@H](Cc1ccccc1)NC(=O)OC(C)(C)C)C(C)(C)C (stereo partly shown)
5. CC(C)[C@H](NC(=O)OCc1ccccc1)C(=O)N[C@@H](Cc1ccccc1)[C@@H](O)CNC[C@@H](O)[C@H](Cc1ccccc1)NC(=O)OC(C)(C)C

Solution:
95
100
23
89
58

Would you mind listing inhibition at 10 µM for each of the following molecules?
1. CC(C)[C@H](NC(=O)OCCNc1ccccc1)C(=O)N[C@@H](Cc1ccccc1)[C@H](O)CNC[C@@H](O)[C@H](Cc1ccccc1)NC(=O)OC(C)(C)C (relative stereo)
2. O=C(N[C@@H](Cc1ccccc1)[C@H](O)CNC[C@@H](O)[C@H](Cc1ccccc1)NC(=O)O[C@H]1CCOC1)O[C@H]1CCOC1
3. CC(C)(C)OC(=O)N[C@@H](Cc1ccccc1)[C@H](O)CNC[C@@H](O)[C@H](Cc1ccccc1)NC(=O)[C@H](O)C(C)(C)C
4. CC(C)(C)OC(=O)N[C@@H](Cc1ccccc1)[C@H](O)CNC[C@@H](O)[C@H](Cc1ccccc1)NC(=O)OC(C)(C)CCCN
5. CC(C)(C)OC(=O)N[C@@H](Cc1ccccc1)[C@H](O)CNC[C@@H](O)[C@H](Cc1ccccc1)NC(=O)C(OCCCc1nc2ccccc2[nH]1)C(C)(C)C (stereo partly shown)
6. CC(C)[C@H](NC(=O)c1ccc2ccccc2c1)C(=O)N[C@@H](Cc1ccccc1)[C@H](O)CNC[C@@H](O)[C@H](Cc1ccccc1)NC(=O)OC(C)(C)C
7. CC(C)(C)OC(=O)N[C@@H](Cc1ccccc1)[C@H](O)CNC[C@@H](O)[C@H](Cc1ccccc1O)NC(=O)OC(C)(C)C
8. CC(C)(C)OC(=O)N[C@@H](Cc1ccccc1)[C@H](O)CNC[C@@H](O)[C@H](Cc1ccccc1)NC(=O)[C@@H](NC(=O)OCc1ccccc1)C(C)(C)C

Solution:
1. 98
2. 99
3. 99
4. 73
5. 64
6. 99
7. 98
8. 100

Please state, for each entry, its recorded inhibition at 10 µM.
1. CC(C)(C)OC(=O)N[C@@H](Cc1ccccc1)[C@H](O)CNC[C@@H](O)[C@H](CC1CCCCC1)NC(=O)OC(C)(C)C
2. CC(C)[C@H](NC(=O)Cc1nc2ccccc2[nH]1)C(=O)N[C@@H](Cc1ccccc1)[C@H](O)CNC[C@@H](O)[C@H](Cc1ccccc1)NC(=O)OC(C)(C)C (relative stereo)
3. CC(C)(C)OC(=O)N[C@@H](C/C=C/c1ccc(O)cc1)[C@H](O)CNC[C@@H](O)[C@H](Cc1ccccc1)NC(=O)OC(C)(C)C
4. CC(C)(C)OC(=O)N[C@@H](Cc1ccccc1)[C@H](O)CNC[C@@H](O)[C@H](Cc1ccc(OCC(=O)O)cc1)NC(=O)OC(C)(C)C

Solution:
98
99
97
98
